The reported numbers originate from ChEMBL document CHEMBL4219154.

Test system: Plasmodium falciparum
Test: Antiplasmodial activity against Plasmodium falciparum 3D7 infected in red blood cells after 48 hrs
Assay type: functional, organism-based
Conditions: 3D7, 48 h
parameter: IC50 (nM)
Give just the number in nM; leave the unit off.

Task: Item COc1ccc(-c2nc3ccc(C(=O)N4CC(CCl)c5c4cc(O)c4ccoc54)cc3[nH]2)cc1 (configuration not stated) has what recorded IC50?
Output: 3.7

Task: Could you tell me which IC50 is on file for COc1cc2cc(C(=O)N3CC(CCl)c4c3cc(O)c3ccoc43)[nH]c2c(OC)c1OC (configuration not stated) ?
Output: 0.064
